All values here come from patent US6861390B2.

Tested on: Leptosphaeria nodorum (LEPTNO)
ASSAY: Glume Blotch of Wheat, whole plant 24 Hour Protectant (T2)
STUDY CONDITIONS: Parastagonospora nodorum; wheat (cultivar Yuma), sprayed at 100 ppm, inoculated after 24 hours; read-out: T2 LEPTNO in vivo 1 Day Protectant, control of fungal infection
Below, each of the molecules is paired with its reported pest or weed control at 100 ppm value.

Worked cases, pest or weed control at 100 ppm given:
[
  {
    "ENTRY SMILES": "CCCO[C@H]1[C@H](C)OC(=O)[C@@H](NC(=O)c2nccc(OC)c2OCOC(C)=O)COC(=O)[C@@H]1Cc1ccccc1",
    "RESULT VALUE": "75 to 100%"
  },
  {
    "ENTRY SMILES": "COCCOC(=O)OCOc1c(OC)ccnc1C(=O)N[C@H]1COC(=O)[C@H](Cc2ccccc2)[C@@H](OC(=O)C(C)C)[C@H](C)OC1=O",
    "RESULT VALUE": "75 to 100%"
  }
]

Please report pest or weed control at 100 ppm for the following molecule: "COc1ccnc(C(=O)N[C@H]2COC(=O)[C@H](Cc3ccccc3)[C@@H](OC(=O)C(C)C)[C@H](C)OC2=O)c1OCOC(C)(C)C"
75 to 100%

* * *

System: Ustilago maydis (USTIMA)
ASSAY: microbe, parasite or virus in culture
Assay type: cell-based
STUDY CONDITIONS: Mycosarcoma maydis, read-out: T12 USTIMA in vitro Growth Inhibition
READOUT NAME: inhibition at 25 ppm

[
  {
    "ENTRY SMILES": "COCCC(=O)OCOc1c(OC)ccnc1C(=O)N[C@H]1COC(=O)[C@H](Cc2ccccc2)[C@@H](OC(=O)C(C)C)[C@H](C)OC1=O",
    "inhibition at 25 ppm": "< 80%"
  }
]

Find inhibition at 25 ppm for "COc1ccnc(C(=O)N[C@H]2COC(=O)[C@H](Cc3ccccc3)[C@@H](OC(=O)C(C)C)[C@H](C)OC2=O)c1OCOCCCl" on Ustilago maydis (USTIMA) and write it down.
< 80%

Find inhibition at 25 ppm for "COc1ccnc(C(=O)N[C@H]2COC(=O)[C@H](Cc3ccccc3)[C@@H](OC3CCCC3)[C@H](C)OC2=O)c1OCOC(C)=O" on Ustilago maydis (USTIMA) and write it down.
< 80%

Find inhibition at 25 ppm for "CCCOC(=O)OCOc1c(OC)ccnc1C(=O)N[C@H]1COC(=O)[C@H](Cc2ccccc2)[C@@H](OC(=O)C(C)C)[C@H](C)OC1=O" on Ustilago maydis (USTIMA) and write it down.
< 80%

Find inhibition at 25 ppm for "COc1ccnc(C(=O)N[C@H]2COC(=O)[C@H](Cc3ccccc3)[C@@H](OC(=O)C(C)C)[C@H](C)OC2=O)c1OCOC(=O)COC1CCCC1" on Ustilago maydis (USTIMA) and write it down.
> 80%

Find inhibition at 25 ppm for "COCCOCC(=O)OCOc1c(OC)ccnc1C(=O)N[C@H]1COC(=O)[C@H](Cc2ccccc2)[C@@H](OCSC)[C@H](C)OC1=O" on Ustilago maydis (USTIMA) and write it down.
> 80%

* * *

System: Ustilago maydis (USTIMA)
ASSAY: microbe, parasite or virus in culture
Type: cell-based
STUDY CONDITIONS: Mycosarcoma maydis, read-out: T12 USTIMA in vitro Growth Inhibition
READOUT NAME: inhibition at 25 ppm

[
  {
    "COMPOUND": "CCCO[C@H]1[C@H](C)OC(=O)[C@@H](NC(=O)c2nccc(OC)c2OCOC(=O)CCC)COC(=O)[C@@H]1Cc1ccccc1",
    "inhibition at 25 ppm": "< 80%"
  }
]

Please report inhibition at 25 ppm for the following compound: COc1ccnc(C(=O)N[C@H]2COC(=O)[C@H](Cc3ccccc3)[C@@H](OC(=O)C(C)C)[C@H](C)OC2=O)c1OC1OC(=O)c2ccccc21 (stereo partly drawn)
< 80%

Please report inhibition at 25 ppm for the following compound: "COc1ccnc(C(=O)N[C@H]2COC(=O)[C@H](Cc3ccccc3)[C@@H](OC(=O)C(C)C)[C@H](C)OC2=O)c1OCOCc1ccccc1"
< 80%

Please report inhibition at 25 ppm for the following compound: "CCOCC(=O)OCOc1c(OC)ccnc1C(=O)N[C@H]1COC(=O)[C@H](Cc2ccccc2)[C@@H](OCC(C)C)[C@H](C)OC1=O"
> 80%

Please report inhibition at 25 ppm for the following compound: "CCCO[C@H]1[C@H](C)OC(=O)[C@@H](NC(=O)c2nccc(OC)c2OCOC(=O)CCOC)COC(=O)[C@@H]1Cc1ccccc1"
< 80%

Please report inhibition at 25 ppm for the following compound: "COc1ccnc(C(=O)N[C@H]2COC(=O)[C@H](Cc3ccccc3)[C@@H](OCC(C)C)[C@H](C)OC2=O)c1OCOC(=O)C1CCCC1"
> 80%
